Reported values of Rel. luciferase activity (%) 3 for individual entries
Test system: STAT3
METHOD SUMMARY: STAT3-dependent luciferase reporter assay in MDA-MB-231-STAT3 stable cells
Type: cell-based, human
PROTOCOL CONDITIONS: 20 μM, experiment 3, relative to DMSO
Description: FIG. 12. Identification of active inS3-54 analogues. (A) Effects of inS3-54 analogues on STAT3-dependent luciferase expression. […] MDA-MB-231-STAT3 stable cell line with high level of STAT3-dependent luciferase expression was exposed to candidate compounds at 20 μM in DMSO for 48 hours based on previous studies, and luciferase activity was measured using a luciferase assay kit (Promega, USA), following manufacturer's instructions. […]
I only need the number, in %, no unit after it.

Reference set (2 entries):
INSERT INTO measurements (molecule, recorded_value) VALUES
  ('COC(=O)c1cc(N2C(=O)C(=Cc3ccc(Cl)cc3)C=C2c2ccccc2)ccc1Cl', 73.6),
  ('O=C1C(=Cc2ccc(Cl)cc2)C=C(c2ccccc2)N1c1ccc2ccccc2c1', 80.5);

stdin: Hello, please tell me recorded Rel. luciferase activity (%) 3 for this one: O=C1C(=Cc2ccc([N+](=O)[O-])cc2)C=C(c2ccccc2)N1c1ccccc1
stdout: 68.7

stdin: Hello, please tell me recorded Rel. luciferase activity (%) 3 for this one: O=C1C(=Cc2ccc(-c3ccc([N+](=O)[O-])cc3)o2)C=C(c2ccccc2)N1Cc1ccccc1
stdout: 49.0

stdin: Hello, please tell me recorded Rel. luciferase activity (%) 3 for this one: COc1ccc(C=C2C=C(c3ccccc3)N(c3ccc(NC(C)=O)cc3)C2=O)cc1
stdout: 58.9

stdin: Hello, please tell me recorded Rel. luciferase activity (%) 3 for this one: COc1ccc(C=C2C=C(c3ccccc3)N(c3ccc(Cl)c(Cl)c3)C2=O)cc1
stdout: 77.7

stdin: Hello, please tell me recorded Rel. luciferase activity (%) 3 for this one: COC(=O)c1ccc(N2C(=O)C(=Cc3ccc(Cl)cc3)C=C2c2ccccc2)cc1
stdout: 69.4

stdin: Hello, please tell me recorded Rel. luciferase activity (%) 3 for this one: O=C1C(=Cc2ccc([N+](=O)[O-])cc2)C=C(c2ccccc2)N1c1ccc(Cl)c(Cl)c1 [Compound A48]
stdout: 42.5

----------
METHOD SUMMARY: Cytotoxicity sulphorhodamine (SRB) assay, non-cancerous cells
PROTOCOL CONDITIONS: human, IMR90 lung fibroblast and MCF10A1 mammary epithelial cells
OBSERVABLE: IC50 at 72 h

stdin: Hello, please tell me recorded IC50 at 72 h for this one: O=C(O)c1ccc(N2C(=O)/C(=C/c3ccc([N+](=O)[O-])cc3)C=C2c2ccccc2)cc1
stdout: 10 to 12 µM

----------
Tested on: IMR90 and MCF10A1 cells
METHOD SUMMARY: Cytotoxicity sulphorhodamine (SRB) assay, non-cancerous cells
PROTOCOL CONDITIONS: read-out: IC50, noncancerous lung fibroblast; lung fibroblast (IMR90)
OBSERVABLE: pIC50
In textbook form, pIC50 equals minus log to base ten of the concentration in mol/L.

stdin: Hello, please tell me recorded pIC50 for this one: CC(=O)Nc1ccc(N2C(=O)C(=Cc3ccc(Cl)cc3)C=C2c2ccccc2)cc1
stdout: 5.40

----------
Test system: STAT3
METHOD SUMMARY: STAT3-dependent luciferase reporter assay in MDA-MB-231-STAT3 stable cells
Type: cell-based, human
PROTOCOL CONDITIONS: 20 μM, experiment 3, relative to DMSO
Rel. luciferase activity (%) 3 under 70% gets true (1), anything at or over 70% gets false (0).

INSERT INTO results (compound, target_or_system, class_label) VALUES
  ('O=C1C(=Cc2ccc(Cl)cc2)C=C(c2ccccc2)N1c1ccc(O)cc1', 'STAT3', 'true (1)'),
  ('COC(=O)c1cccc(N2C(=O)C(=Cc3ccc([N+](=O)[O-])cc3)C=C2c2ccccc2)c1', 'STAT3', 'false (0)'),
  ('COc1ccccc1N1C(=O)C(=Cc2ccc([N+](=O)[O-])cc2)C=C1c1ccccc1', 'STAT3', 'true (1)');

stdin: Here's an entry: CC(C)(C)c1ccc(N2C(=O)C(=Cc3ccc(Cl)cc3)C=C2c2ccccc2)cc1 . Is its Rel. luciferase activity (%) 3 below 70%?
stdout: false (0)
